solubility kinetic at 0.5 h for assorted compounds
Assay: Kinetic solubility of the compound in water after 30 mins by nephelometric analysis
Assay type: physicochemical
Conditions: read-out: Kinetic_solubility

# Compound, solubility kinetic at 0.5 h
records = [
    ("CC(C)(O)CNCCCOc1ccc([C@H]2CC[C@]3(CC2)OOC2(O3)C3CC4CC(C3)CC2C4)cc1 (some centres undefined)", "> 100 µg/mL"),
    ("NCCCCOc1ccc([C@H]2CC[C@]3(CC2)OOC2(O3)C3CC4CC(C3)CC2C4)cc1 (some centres undefined)", "50 to 100 µg/mL"),
    ("NC1CCN(S(=O)(=O)c2ccc([C@H]3CC[C@]4(CC3)OOC3(O4)C4CC5CC(C4)CC3C5)cc2)CC1 (some centres undefined)", "12.5 to 25 µg/mL"),
    ("c1cc([C@H]2CC[C@]3(CC2)OOC2(O3)C3CC4CC(C3)CC2C4)ccc1OCC1CCNCC1 (some centres undefined)", "12.5 to 25 µg/mL"),
]
